Notes on Ki obtained with 5-hydroxytryptamine receptor 6 (Homo sapiens, UniProt P50406).
Sequence (P50406 whole entry): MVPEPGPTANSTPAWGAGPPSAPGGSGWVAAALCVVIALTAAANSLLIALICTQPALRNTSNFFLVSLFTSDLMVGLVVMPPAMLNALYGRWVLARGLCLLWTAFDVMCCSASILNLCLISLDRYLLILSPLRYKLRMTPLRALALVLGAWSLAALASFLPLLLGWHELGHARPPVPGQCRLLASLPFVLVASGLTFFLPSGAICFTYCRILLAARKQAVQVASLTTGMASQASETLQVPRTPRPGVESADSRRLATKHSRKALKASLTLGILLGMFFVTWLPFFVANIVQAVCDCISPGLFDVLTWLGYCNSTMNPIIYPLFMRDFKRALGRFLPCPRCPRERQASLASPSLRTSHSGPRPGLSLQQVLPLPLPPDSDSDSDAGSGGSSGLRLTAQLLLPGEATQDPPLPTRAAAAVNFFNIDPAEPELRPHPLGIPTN
Quick reminder: number only, in µM, skip the unit.

                                   compound  recorded_metric  measured_result
0  O=C1Nc2ccccc2C12CCN(CCN1CC=C(c3ccc(F)cc3)CC1)C2 (stereo not given)               Ki             6.27
1  O=C1Nc2ccccc2C12CCN(CCCN1CCN(c3ccc(Cl)cc3)CC1)C2 (stereo not given)               Ki             5.56
2  O=C1Nc2ccccc2C12CCN(CCN1CCN(c3ccc(Cl)cc3)CC1)C2 (stereo not given)               Ki             4.74
3  O=C(c1ccc(Cl)cc1)N1CCN(CCN2CCC3(C2)C(=O)Nc2ccccc23)CC1 (stereo not given)               Ki             7.75

We next turn to a different compound, shown below.
[ask] Give recorded Ki with 5-hydroxytryptamine receptor 6 (Homo sapiens, UniProt P50406) for the following compound: O=C1Nc2ccccc2C12CCN(CCN1CCC(c3ccc(Cl)cc3)CC1)C2 (stereo not given)
[reply] 4.58
